test: Solubility of Compound 1 in different co-solvents (excess compound, HPLC analysis); type: physicochemical; conditions: organic solvent or mixture, thermodynamic from solid; solvent Glycerin, 25° C., about half an hour
readout: solubility (mg/mL)
I only need the number, in mg/mL, no unit after it.

# input Specify measured solubility for Cc1c(S(C)(=O)=O)c(-c2cc(F)cc(N3CCN(c4ccc(NS(=O)(=O)c5ccc(N[C@H](CCN6CCC(C(=O)OCCCP(=O)(O)O)CC6)CSc6ccccc6)c(S(=O)(=O)C(F)(F)F)c5)cc4)CC3)c2)c(-c2ccc(Cl)cc2)n1C(C)C [Compound 1] .
# output 0.45

###

test: Solubility of Compound 1 in different co-solvents (excess compound, HPLC analysis); assay type: physicochemical; conditions: organic solvent or mixture, thermodynamic from solid; solvent Propylene glycol, 25° C., about half an hour
readout: solubility
The answer consists of two parts: a number and, after it, its unit.

# input Specify measured solubility for Cc1c(S(C)(=O)=O)c(-c2cc(F)cc(N3CCN(c4ccc(NS(=O)(=O)c5ccc(N[C@H](CCN6CCC(C(=O)OCCCP(=O)(O)O)CC6)CSc6ccccc6)c(S(=O)(=O)C(F)(F)F)c5)cc4)CC3)c2)c(-c2ccc(Cl)cc2)n1C(C)C [Compound 1] .
# output 3100 µg/mL
